target: CFTR-mediated chloride transport (Homo sapiens, UniProt P13569); settings: enteroid cells incubated with test compound 18-24 hours; acute 10 μM forskolin and 300 nM Compound III
Sequence (P13569 whole entry, looked up): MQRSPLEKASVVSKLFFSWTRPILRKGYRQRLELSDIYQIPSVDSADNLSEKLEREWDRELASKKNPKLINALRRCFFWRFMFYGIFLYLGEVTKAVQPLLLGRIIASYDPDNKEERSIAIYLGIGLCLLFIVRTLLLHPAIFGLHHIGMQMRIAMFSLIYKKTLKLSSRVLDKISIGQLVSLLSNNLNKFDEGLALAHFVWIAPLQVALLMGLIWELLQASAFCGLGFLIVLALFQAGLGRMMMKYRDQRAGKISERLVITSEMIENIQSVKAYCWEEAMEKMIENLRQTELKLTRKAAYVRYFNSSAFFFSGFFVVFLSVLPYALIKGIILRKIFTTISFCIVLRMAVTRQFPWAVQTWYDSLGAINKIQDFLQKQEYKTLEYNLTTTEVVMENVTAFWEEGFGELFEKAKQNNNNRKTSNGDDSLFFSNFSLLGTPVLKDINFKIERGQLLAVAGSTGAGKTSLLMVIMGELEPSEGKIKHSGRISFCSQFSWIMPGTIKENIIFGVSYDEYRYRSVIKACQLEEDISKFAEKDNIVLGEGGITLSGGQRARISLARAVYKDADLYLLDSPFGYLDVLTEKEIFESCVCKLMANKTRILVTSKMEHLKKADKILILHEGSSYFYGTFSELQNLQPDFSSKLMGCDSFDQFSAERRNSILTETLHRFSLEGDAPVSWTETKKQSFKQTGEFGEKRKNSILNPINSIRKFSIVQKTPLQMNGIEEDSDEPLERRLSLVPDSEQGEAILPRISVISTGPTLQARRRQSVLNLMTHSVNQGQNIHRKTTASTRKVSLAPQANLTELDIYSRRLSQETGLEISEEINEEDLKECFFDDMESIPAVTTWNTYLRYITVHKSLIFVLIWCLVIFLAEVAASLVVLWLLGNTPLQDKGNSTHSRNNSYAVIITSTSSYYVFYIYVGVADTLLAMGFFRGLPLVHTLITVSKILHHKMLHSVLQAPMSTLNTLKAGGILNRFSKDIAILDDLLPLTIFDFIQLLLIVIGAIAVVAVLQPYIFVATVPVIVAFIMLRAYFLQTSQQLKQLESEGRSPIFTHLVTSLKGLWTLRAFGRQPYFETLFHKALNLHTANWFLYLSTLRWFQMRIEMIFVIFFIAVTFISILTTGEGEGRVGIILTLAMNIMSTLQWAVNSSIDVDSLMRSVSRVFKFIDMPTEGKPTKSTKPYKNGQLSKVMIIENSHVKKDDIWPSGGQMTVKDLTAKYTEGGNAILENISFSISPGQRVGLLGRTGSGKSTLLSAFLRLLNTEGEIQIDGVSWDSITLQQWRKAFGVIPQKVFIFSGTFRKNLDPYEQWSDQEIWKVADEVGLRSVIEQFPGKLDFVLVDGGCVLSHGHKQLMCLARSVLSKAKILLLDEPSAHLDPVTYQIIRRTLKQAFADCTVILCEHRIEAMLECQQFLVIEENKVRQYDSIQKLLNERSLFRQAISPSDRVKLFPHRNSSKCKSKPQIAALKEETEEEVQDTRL
value.kind: EC50

* CC(C)(C)CCCN1CCN(c2ccc3c(n2)N2C[C@@H](CCCNc4cccc(n4)S(=O)(=O)NC3=O)CC2(C)C)C1=O | < 1000 nM
* CC1(C)C[C@@H]2CCCOc3cccc(c3)S(=O)(=O)NC(=O)c3ccc(-n4ccc(OCCC5(C(F)(F)F)CC5)n4)nc3N1C2 | < 1000 nM

INPUT: Query (molecule): CC1(C)C[C@H]2CCCn3cc(cn3)S(=O)(=O)NC(=O)c3ccc(-n4ccc(OCCC5(C(F)(F)F)CC5)n4)nc3N1C2 (single isomer, unassigned) [Compound 118] ; field requested: EC50
OUTPUT: 1000 to 3000 nM

INPUT: Let us now turn to Cc1c2cnn1CCCC1CN(c3nc(-n4ccc(OCC(C)(C)C(F)(F)F)n4)ccc3C(=O)NS2(=O)=O)C(C)(C)C1 (single isomer, unassigned) [Compound 288]
OUTPUT: 1000 to 3000 nM

INPUT: Let us now turn to C[C@@H]1CC[C@H]2CN(c3nc(-n4ccc(OCCC5(C(F)(F)F)CC5)n4)ccc3C(=O)NS(=O)(=O)c3cccc(n3)N1)C(C)(C)C2 (single isomer, unassigned) [Compound 61]
OUTPUT: < 1000 nM

Origin of values: patent US11866450B2
